Origin of measurements: paper PMC9694544

Assay: clinical
Conditions: human, in vivo, cycle 1 day 28 of dose-escalation phase, 100 mg (n=3), mean
endpoint_label: AUC(0-t) (ng·h/mL)
Field: numeric (ng·h/mL). Do not append units.

Record `COc1cc(N2CCC(N3CCN(C)CC3)CC2)ccc1Nc1nc2c(c(Nc3ccccc3S(=O)(=O)NC(C)C)n1)CCN2` , field AUC(0-t): 1480

====

Experiment: clinical
Details: human, in vivo, cycle 1 day 28 of dose-escalation phase, 300 mg (n=3), mean
Experimental: For single-dose PK parameters, plasma samples were taken at pre-dose and 0.5 h, 1 h, 2 h, 3 h, 4 h, 6 h, 8 h, 12 h, 24 h, 48 h, 72 h, 96 h, 120 h, 144 h, and 168 h post-dose in PK lead-in phase of dose-escalation phase, and plasma samples were also taken at pre-dose and 0.5 h, 1 h, 2 h, 3 h, 4 h, 6 h, 8 h, 12 h, and 24 h post-dose in cycle 1 day 1 of dose-expansion phase. […]
endpoint_label: AUC(0-t) (ng·h/mL)
Give the value in ng·h/mL but do not write ng·h/mL after it.

Notebook: `COc1cc(N2CCC(N3CCN(C)CC3)CC2)ccc1Nc1nc2c(c(Nc3ccccc3S(=O)(=O)NC(C)C)n1)CCN2` , AUC(0-t) read as 4860

====

Assay: clinical
Conditions: human, in vivo, 100 mg, single dose, cycle 1 day 1 of dose-expansion phase, 100 mg (n=5), mean; read-out: AUCINF_obs
Method: For single-dose PK parameters, plasma samples were taken at pre-dose and 0.5 h, 1 h, 2 h, 3 h, 4 h, 6 h, 8 h, 12 h, 24 h, 48 h, 72 h, 96 h, 120 h, 144 h, and 168 h post-dose in PK lead-in phase of dose-escalation phase, and plasma samples were also taken at pre-dose and 0.5 h, 1 h, 2 h, 3 h, 4 h, 6 h, 8 h, 12 h, and 24 h post-dose in cycle 1 day 1 of dose-expansion phase. […]
endpoint_label: AUC(0-inf)

AUC(0-inf) reported for this molecule COc1cc(N2CCC(N3CCN(C)CC3)CC2)ccc1Nc1nc2c(c(Nc3ccccc3S(=O)(=O)NC(C)C)n1)CCN2 [Conteltinib] : 1310 ng·h/mL

====

Test: clinical
Conditions: human, in vivo, cycle 1 day 28 of dose-escalation phase, 800 mg (n=2), mean; read-out: AUCINF_obs
endpoint_label: AUC(0-inf) (ng·h/mL)
Express the result in ng·h/mL but write the number alone.

Kindly note the recorded AUC(0-inf) for `COc1cc(N2CCC(N3CCN(C)CC3)CC2)ccc1Nc1nc2c(c(Nc3ccccc3S(=O)(=O)NC(C)C)n1)CCN2` , which is 27200

====

Test: clinical
Settings: human, in vivo, 100 mg, cycle 1 day 28 of dose-expansion phase, 100 mg (n=5), mean; read-out: T1/2 (converted)
Method: For single-dose PK parameters, plasma samples were taken at pre-dose and 0.5 h, 1 h, 2 h, 3 h, 4 h, 6 h, 8 h, 12 h, 24 h, 48 h, 72 h, 96 h, 120 h, 144 h, and 168 h post-dose in PK lead-in phase of dose-escalation phase, and plasma samples were also taken at pre-dose and 0.5 h, 1 h, 2 h, 3 h, 4 h, 6 h, 8 h, 12 h, and 24 h post-dose in cycle 1 day 1 of dose-expansion phase. […]
endpoint_label: half-life (h)
The reply should be a number in h, with the unit left off.

Record COc1cc(N2CCC(N3CCN(C)CC3)CC2)ccc1Nc1nc2c(c(Nc3ccccc3S(=O)(=O)NC(C)C)n1)CCN2 [Conteltinib] . Reported half-life: 53.2

====

Test: clinical
Conditions: human, in vivo, 600 mg, single dose, cycle 1 day 1 of dose-expansion phase, 600 mg (n=10), mean; read-out: Tmax
endpoint_label: Tmax (h)
The reply should be a number in h, with the unit left off.

GET /value?item= `COc1cc(N2CCC(N3CCN(C)CC3)CC2)ccc1Nc1nc2c(c(Nc3ccccc3S(=O)(=O)NC(C)C)n1)CCN2` &field=Tmax returns 4.6

====

Assay: clinical
Settings: human, in vivo, cycle 1 day 28 of dose-escalation phase, 600 mg (n=7), mean; read-out: Tmax
endpoint_label: Tmax (h)
Form entry: value (h) — number only.

Item: COc1cc(N2CCC(N3CCN(C)CC3)CC2)ccc1Nc1nc2c(c(Nc3ccccc3S(=O)(=O)NC(C)C)n1)CCN2 [Conteltinib] | Tmax: 2.5

====

Assay: clinical
Conditions: human, in vivo, 100 mg, single dose, cycle 1 day 1 of dose-expansion phase, 100 mg (n=5), mean
endpoint_label: AUC(0-t) (ng·h/mL)
Field: numeric (ng·h/mL). Do not append units.

Per the record, COc1cc(N2CCC(N3CCN(C)CC3)CC2)ccc1Nc1nc2c(c(Nc3ccccc3S(=O)(=O)NC(C)C)n1)CCN2 [Conteltinib] has AUC(0-t) of 737

====

Assay: clinical
Conditions: human, in vivo, single dose, PK lead-in phase of dose-escalation phase, 100 mg (n=3), mean
endpoint_label: AUC(0-t) (ng·h/mL)
Express it in ng·h/mL; write the number only.

Kindly note the recorded AUC(0-t) for COc1cc(N2CCC(N3CCN(C)CC3)CC2)ccc1Nc1nc2c(c(Nc3ccccc3S(=O)(=O)NC(C)C)n1)CCN2 [Conteltinib] , which is 732

====

Test: clinical
Conditions: human, in vivo, single dose, PK lead-in phase of dose-escalation phase, 800 mg (n=3), mean; read-out: Cmax
endpoint_label: Cmax (ng/mL)
Answer in ng/mL, number only, no unit symbol.

Just so you know, measured Cmax for COc1cc(N2CCC(N3CCN(C)CC3)CC2)ccc1Nc1nc2c(c(Nc3ccccc3S(=O)(=O)NC(C)C)n1)CCN2 [Conteltinib] came out at 421

====

Assay: clinical
Conditions: human, in vivo, single dose, PK lead-in phase of dose-escalation phase, 450 mg (n=4), mean
endpoint_label: AUC(0-t) (ng·h/mL)
Reply numerically in ng·h/mL, unit not repeated.

get_value(item= `COc1cc(N2CCC(N3CCN(C)CC3)CC2)ccc1Nc1nc2c(c(Nc3ccccc3S(=O)(=O)NC(C)C)n1)CCN2` , readout=AUC(0-t)) returns 9880

====

Test: clinical
Settings: human, in vivo, single dose, PK lead-in phase of dose-escalation phase, 100 mg (n=3), mean; read-out: Cmax
Procedure: For single-dose PK parameters, plasma samples were taken at pre-dose and 0.5 h, 1 h, 2 h, 3 h, 4 h, 6 h, 8 h, 12 h, 24 h, 48 h, 72 h, 96 h, 120 h, 144 h, and 168 h post-dose in PK lead-in phase of dose-escalation phase, and plasma samples were also taken at pre-dose and 0.5 h, 1 h, 2 h, 3 h, 4 h, 6 h, 8 h, 12 h, and 24 h post-dose in cycle 1 day 1 of dose-expansion phase. […]
endpoint_label: Cmax (ng/mL)
Give just the number in ng/mL; leave the unit off.

Entry `COc1cc(N2CCC(N3CCN(C)CC3)CC2)ccc1Nc1nc2c(c(Nc3ccccc3S(=O)(=O)NC(C)C)n1)CCN2` — recorded Cmax = 69
